- Method notes: Solubility determination in aqueous solvents at 37° C.
- Type: physicochemical
- Test settings: 0.01M HCl, 37 °C, pH 2, simulated gastric fluid, thermodynamic from solid, 60 min
Readout kind: solubility at 60 min (µg/mL)
Provide only the numeric value, understood in µg/mL.

response.value for CC(=O)c1c(C)c2cnc(Nc3ccc(N4CCNCC4)cn3)nc2n(C2CCCC2)c1=O [Palbociclib in present crystalline Form] (field: solubility at 60 min) = 4300

====

- Method notes: Solubility determination in aqueous solvents at 37° C.
- Type: physicochemical
- Test settings: 50 mM KH2PO4 buffer, 37 °C, pH 6.8, aqueous buffer, thermodynamic from solid, 50 mM KH2PO4 (pH 6.8), 15 min
Readout kind: solubility at 15 min (µg/mL)
Provide only the numeric value, understood in µg/mL.

response.value for CC(=O)c1c(C)c2cnc(Nc3ccc(N4CCNCC4)cn3)nc2n(C2CCCC2)c1=O [Palbociclib in present crystalline Form] (field: solubility at 15 min) = 100

Attribution: patent US10526326B2
